# Tested on: H1975OR cells
# Protocol Details: MTT assay, osimertinib-resistant H1975OR
# Assay type: cell-based
# Experimental Setup: Homo sapiens, H1975OR, 24 h, resistance-inducing drug (osimertinib), read-out: 24 h IC50
Assay Readout: IC50 (µM)
One number for each entry, in µM.

Lookup: Name the recorded IC50 of C=CC(=O)Nc1cc(Nc2nccc(-c3cn(C)c4ccccc34)n2)c(OC)cc1N(C)CCN(C)C [osimertinib, reference compound] , assay system H1975OR cells.
Found: 13.8

====

Assignment: determine reported IC50 for the given molecules.
# Study Target: EGFR (Homo sapiens, UniProt P00533)
# Construct: purchased Active MOTIF
# Sequence (P00533 25-1210): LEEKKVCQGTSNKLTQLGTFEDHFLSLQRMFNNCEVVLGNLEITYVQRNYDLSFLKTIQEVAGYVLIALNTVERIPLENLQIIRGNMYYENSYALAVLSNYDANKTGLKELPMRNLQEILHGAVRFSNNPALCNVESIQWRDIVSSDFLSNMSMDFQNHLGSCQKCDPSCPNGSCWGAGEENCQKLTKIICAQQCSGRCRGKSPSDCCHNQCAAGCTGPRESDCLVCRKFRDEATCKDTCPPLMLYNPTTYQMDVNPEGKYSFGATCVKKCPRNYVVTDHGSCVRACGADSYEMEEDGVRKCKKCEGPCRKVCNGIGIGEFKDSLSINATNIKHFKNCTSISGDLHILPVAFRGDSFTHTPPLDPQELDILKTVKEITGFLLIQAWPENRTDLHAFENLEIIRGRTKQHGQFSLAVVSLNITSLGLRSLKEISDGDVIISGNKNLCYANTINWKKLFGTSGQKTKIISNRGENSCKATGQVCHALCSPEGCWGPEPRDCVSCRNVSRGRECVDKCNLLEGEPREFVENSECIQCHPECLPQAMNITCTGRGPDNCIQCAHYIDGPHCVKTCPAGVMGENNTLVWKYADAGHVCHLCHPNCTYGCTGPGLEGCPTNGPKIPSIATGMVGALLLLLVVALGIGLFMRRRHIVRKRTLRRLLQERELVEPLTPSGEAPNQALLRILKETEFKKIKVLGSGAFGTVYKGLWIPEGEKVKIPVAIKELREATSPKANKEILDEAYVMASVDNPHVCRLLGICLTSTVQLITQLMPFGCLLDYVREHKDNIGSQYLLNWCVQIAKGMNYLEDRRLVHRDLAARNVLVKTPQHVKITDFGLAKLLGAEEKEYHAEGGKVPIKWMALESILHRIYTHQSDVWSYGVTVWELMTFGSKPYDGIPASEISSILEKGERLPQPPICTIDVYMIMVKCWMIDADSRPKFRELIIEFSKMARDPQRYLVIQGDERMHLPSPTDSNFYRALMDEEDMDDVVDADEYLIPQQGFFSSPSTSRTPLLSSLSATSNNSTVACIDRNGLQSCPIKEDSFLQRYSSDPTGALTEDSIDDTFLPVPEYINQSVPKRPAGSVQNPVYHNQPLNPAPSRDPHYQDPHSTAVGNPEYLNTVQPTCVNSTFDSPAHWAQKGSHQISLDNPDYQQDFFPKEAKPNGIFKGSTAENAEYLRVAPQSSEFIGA
# Protocol Details: EGFR kinase assay (ELISA)
# Type: biochemical
# Experimental Setup: incubation 2 h, 25°C, read-out: IC50 EGFR 2 h
One number for each entry, in µM.

Molecule	IC50, µM
Clc1ccc(-n2cc(-c3cccc(Nc4ncnc5cc6c(cc45)OCCOCCOCCO6)c3)nn2)cc1	71.7
COc1ccccc1-n1cc(-c2cccc(Nc3ncnc4cc5c(cc34)OCCOCCOCCO5)c2)nn1	26
C#Cc1cccc(Nc2ncnc3cc4c(cc23)OCCOCCOCCO4)c1 [icotinib, reference compound]	0.038
FC(F)(F)c1ccc(-n2cc(-c3cccc(Nc4ncnc5cc6c(cc45)OCCOCCOCCO6)c3)nn2)cc1	1.67

Now consider the entry below.
Lookup: Give measured IC50 for Clc1ccccc1-n1cc(-c2cccc(Nc3ncnc4cc5c(cc34)OCCOCCOCCO5)c2)nn1 (EGFR (Homo sapiens, UniProt P00533)).
Found: 4.41

====

# Test system: SHEE cells
# Protocol Details: MTT assay, normal esophageal epithelial cell line SHEE
# Format: cell-based
# Experimental Setup: Homo sapiens, 48 h, n = 5
Strictly below 10 µM in IC50: y. Otherwise: n.

Use these answered entries as a reference point.
Mol	Assigned Category
c1ccc(Cn2cc(-c3cccc(Nc4ncnc5cc6c(cc45)OCCOCCOCCO6)c3)nn2)cc1	n
COc1ccccc1-n1cc(-c2cccc(Nc3ncnc4cc5c(cc34)OCCOCCOCCO5)c2)nn1	y
Brc1ccc(-n2cc(-c3cccc(Nc4ncnc5cc6c(cc45)OCCOCCOCCO6)c3)nn2)cc1	n
Brc1ccccc1Cn1cc(-c2cccc(Nc3ncnc4cc5c(cc34)OCCOCCOCCO5)c2)nn1	n

Lookup: A record lists Brc1cccc(Cn2cc(-c3cccc(Nc4ncnc5cc6c(cc45)OCCOCCOCCO6)c3)nn2)c1 . Is its IC50 below 10 µM?
Found: n

Lookup: Does this molecule meet the criterion IC50 < 10 µM? COc1cccc(Cn2cc(-c3cccc(Nc4ncnc5cc6c(cc45)OCCOCCOCCO6)c3)nn2)c1
Found: n

Lookup: Input Brc1ccccc1-n1cc(-c2cccc(Nc3ncnc4cc5c(cc34)OCCOCCOCCO5)c2)nn1 ; condition: IC50 strictly below 10 µM. Does it hold?
Found: n

Lookup: Input c1ccc(-n2cc(-c3cccc(Nc4ncnc5cc6c(cc45)OCCOCCOCCO6)c3)nn2)cc1 ; condition: IC50 strictly below 10 µM. Does it hold?
Found: n

Lookup: Please check: IC50 for Brc1cc(Br)cc(Cn2cc(-c3cccc(Nc4ncnc5cc6c(cc45)OCCOCCOCCO6)c3)nn2)c1 , strictly under 10 µM or not?
Found: n

Lookup: Regarding Fc1cccc(-n2cc(-c3cccc(Nc4ncnc5cc6c(cc45)OCCOCCOCCO6)c3)nn2)c1 , kindly confirm whether its IC50 is beneath 10 µM.
Found: n

Lookup: I'd appreciate it if you could check whether Clc1cccc(-n2cc(-c3cccc(Nc4ncnc5cc6c(cc45)OCCOCCOCCO6)c3)nn2)c1 has IC50 smaller than 10 µM.
Found: y

Lookup: Please determine if FC(F)(F)c1ccc(-n2cc(-c3cccc(Nc4ncnc5cc6c(cc45)OCCOCCOCCO6)c3)nn2)cc1 is below 10 µM in terms of IC50.
Found: y

Lookup: # check: IC50 < 10 µM for Ic1ccccc1-n1cc(-c2cccc(Nc3ncnc4cc5c(cc34)OCCOCCOCCO5)c2)nn1
Found: n

Lookup: IC50 strictly < 10 µM for this molecule? Cc1ccccc1Cn1cc(-c2cccc(Nc3ncnc4cc5c(cc34)OCCOCCOCCO5)c2)nn1
Found: y

Lookup: Is IC50 of Fc1ccc(-n2cc(-c3cccc(Nc4ncnc5cc6c(cc45)OCCOCCOCCO6)c3)nn2)cc1 strictly below 10 µM?
Found: y

====

# Tested on: KYSE450 cells
# Protocol Details: MTT assay, KYSE450
# Assay type: cell-based, human
# Experimental Setup: KYSE450; concentration 50 (unit not given)
Assay Readout: mean absorbance 490 nm (row G)
Give bare numbers.

Mol	Study Target	Assay Readout	Recorded Value
COc1ccccc1-n1cc(-c2cccc(Nc3ncnc4cc5c(cc34)OCCOCCOCCO5)c2)nn1	KYSE450 cells	mean absorbance 490 nm (row G)	0.05908

Could I get mean absorbance 490 nm (row G) for every one of these entries?
1. Clc1ccccc1-n1cc(-c2cccc(Nc3ncnc4cc5c(cc34)OCCOCCOCCO5)c2)nn1
2. COc1cccc(-n2cc(-c3cccc(Nc4ncnc5cc6c(cc45)OCCOCCOCCO6)c3)nn2)c1
3. c1ccc(Cn2cc(-c3cccc(Nc4ncnc5cc6c(cc45)OCCOCCOCCO6)c3)nn2)cc1
4. Cc1ccccc1Cn1cc(-c2cccc(Nc3ncnc4cc5c(cc34)OCCOCCOCCO5)c2)nn1
5. Fc1ccc(CCn2cc(-c3cccc(Nc4ncnc5cc6c(cc45)OCCOCCOCCO6)c3)nn2)cc1

Found:
0.0653
0.1012
0.1516
0.06374
0.09485

====

# Tested on: KYSE410 cells
# Protocol Details: MTT assay, KYSE410
# Assay type: cell-based, human
# Experimental Setup: Homo sapiens, KYSE-410; MTT, 48 h, KYSE410, n = 5; read-out: IC50 48 h KYSE410
Assay Readout: IC50 (µM)
Answers are plain numbers, in µM.

Compound	Endpoint Unit	IC50
Clc1ccccc1-n1cc(-c2cccc(Nc3ncnc4cc5c(cc34)OCCOCCOCCO5)c2)nn1 [compound 3e]	µM	11.7
Clc1ccc(-n2cc(-c3cccc(Nc4ncnc5cc6c(cc45)OCCOCCOCCO6)c3)nn2)cc1 [compound 3b]	µM	10.7

Then this compound:
Lookup: Report value: IC50, system: KYSE410 cells, compound: Brc1ccccc1-n1cc(-c2cccc(Nc3ncnc4cc5c(cc34)OCCOCCOCCO5)c2)nn1 [compound 3k]
Found: 21.9

====

# Tested on: SHEE cells
# Protocol Details: MTT assay, normal esophageal epithelial cell line SHEE
# Assay type: cell-based
# Experimental Setup: Homo sapiens, 48 h, n = 5
Assay Readout: IC50 (µM)
Answers are plain numbers, in µM.

// known answers, use as guide
Molecule	Endpoint Unit	IC50
Cc1ccc(Cn2cc(-c3cccc(Nc4ncnc5cc6c(cc45)OCCOCCOCCO6)c3)nn2)cc1	µM	22.4
Clc1ccccc1-n1cc(-c2cccc(Nc3ncnc4cc5c(cc34)OCCOCCOCCO5)c2)nn1	µM	10.3

Shift focus to the following entry.
Lookup: Give me measured IC50, please, for this molecule: C#Cc1cccc(Nc2ncnc3cc4c(cc23)OCCOCCOCCO4)c1 [icotinib, reference compound]
Found: 19.2

====

What melting point was measured for each of the following?

Compound	melting point
Cc1ccccc1Cn1cc(-c2cccc(Nc3ncnc4cc5c(cc34)OCCOCCOCCO5)c2)nn1 [compound 3n]	114 to 117 °C
Cc1ccc(Cn2cc(-c3cccc(Nc4ncnc5cc6c(cc45)OCCOCCOCCO6)c3)nn2)cc1 [compound 3o]	124 to 127 °C
Clc1ccc(-n2cc(-c3cccc(Nc4ncnc5cc6c(cc45)OCCOCCOCCO6)c3)nn2)cc1 [compound 3b]	132 to 135 °C
c1ccc(Cn2cc(-c3cccc(Nc4ncnc5cc6c(cc45)OCCOCCOCCO6)c3)nn2)cc1 [compound 3r]	146 to 149 °C

The following compounds each have a reported value; give each one's melting point.
1. COc1cccc(-n2cc(-c3cccc(Nc4ncnc5cc6c(cc45)OCCOCCOCCO6)c3)nn2)c1 [compound 3i]
2. Ic1ccccc1-n1cc(-c2cccc(Nc3ncnc4cc5c(cc34)OCCOCCOCCO5)c2)nn1 [compound 3h]
3. c1ccc(-n2cc(-c3cccc(Nc4ncnc5cc6c(cc45)OCCOCCOCCO6)c3)nn2)cc1 [compound 3f]
4. COc1ccccc1-n1cc(-c2cccc(Nc3ncnc4cc5c(cc34)OCCOCCOCCO5)c2)nn1 [compound 3d]

Found:
1: 122 to 125 °C; 2: 137 to 140 °C; 3: 148 to 150 °C; 4: 121 to 124 °C

====

# Study Target: EGFR (Homo sapiens, UniProt P00533)
# Construct: purchased Active MOTIF
# Protocol Details: EGFR kinase assay (ELISA)
# Assay type: biochemical
# Experimental Setup: incubation 1 h, 25°C, read-out: IC50 EGFR 1 h
# Experimental: Kinase inhibitory activities of the compounds were evaluated using the Protein Tyrosine Kinase Assay Kit (SignalChem (British Columbia, Canada)). The kinase enzyme of EGFR was purchased from Active MOTIF. The ELISA experiments were carried out according the instructions of the kit. […] The absorbance was read with a multimode plate reader (PerkinElmer, United States) at 450 nm.
Task for the reader: assign each of the following molecules its reported IC50.

// below: answered molecules
Molecule	IC50
Clc1ccccc1-n1cc(-c2cccc(Nc3ncnc4cc5c(cc34)OCCOCCOCCO5)c2)nn1 [compound 3e]	1290 nM
C#Cc1cccc(Nc2ncnc3cc4c(cc23)OCCOCCOCCO4)c1 [icotinib, reference compound]	1.38 nM

I would be grateful if you could provide IC50 for each of the following entries.
1. COc1ccccc1-n1cc(-c2cccc(Nc3ncnc4cc5c(cc34)OCCOCCOCCO5)c2)nn1 [compound 3d]
2. Clc1ccc(-n2cc(-c3cccc(Nc4ncnc5cc6c(cc45)OCCOCCOCCO6)c3)nn2)cc1 [compound 3b]
3. FC(F)(F)c1ccc(-n2cc(-c3cccc(Nc4ncnc5cc6c(cc45)OCCOCCOCCO6)c3)nn2)cc1 [compound 3l]

Found:
5140 nM
3260 nM
420 nM

Recorded values, source paper PMC9709406.
